# subject of test: Acetylcholinesterase (Homo sapiens, UniProt P22303)
# Sequence (P22303 whole entry): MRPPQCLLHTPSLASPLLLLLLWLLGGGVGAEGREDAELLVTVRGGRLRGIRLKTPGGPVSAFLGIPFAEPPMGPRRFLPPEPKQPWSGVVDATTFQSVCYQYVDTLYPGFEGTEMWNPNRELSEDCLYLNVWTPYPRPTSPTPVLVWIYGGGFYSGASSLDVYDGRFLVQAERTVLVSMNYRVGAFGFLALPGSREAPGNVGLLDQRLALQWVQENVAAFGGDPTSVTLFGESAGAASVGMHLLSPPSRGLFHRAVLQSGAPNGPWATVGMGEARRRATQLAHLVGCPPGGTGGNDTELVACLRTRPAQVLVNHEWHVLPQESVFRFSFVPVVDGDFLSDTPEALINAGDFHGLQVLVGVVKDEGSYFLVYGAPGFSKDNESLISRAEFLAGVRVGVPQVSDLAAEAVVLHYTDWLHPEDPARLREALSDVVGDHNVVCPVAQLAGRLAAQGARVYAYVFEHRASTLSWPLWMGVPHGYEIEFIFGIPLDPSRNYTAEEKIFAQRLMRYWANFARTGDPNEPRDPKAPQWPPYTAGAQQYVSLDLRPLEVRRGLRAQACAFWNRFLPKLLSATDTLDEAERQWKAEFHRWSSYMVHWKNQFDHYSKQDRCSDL
quantity: IC50 (µM)

>>> observed_result("COc1ccc([C@H]2O[C@@H](O)[C@H]3[C@@H]2C(=O)O[C@@H]3c2cc(OC)c3c(c2)OCO3)cc1OC")
0.3
